# tested-target: Nonstructural protein 3 (Zika virus)
# Sequence (A0A024AXB9 whole entry): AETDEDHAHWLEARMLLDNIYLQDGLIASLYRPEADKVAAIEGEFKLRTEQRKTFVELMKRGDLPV
pIC50: −log10 of the molar value.
Label rule, in plain words: pIC50 of 6 and up is condition met, under 6 is condition not met.

Lookup: In plain terms: is recorded pIC50 at least 6 for `NCc1ccc(-c2ncc(OCCC3CCNCC3)nc2-c2ccc(CN)cc2)cc1` ?
Found: condition not met

Lookup: Hi, just wondering whether `NCc1ccc(-c2ncc(OCC3CCNCC3)nc2-c2ccc(C(=O)N3CCCC3)cc2)cc1` shows pIC50 of 6 or higher.
Found: condition not met

Lookup: Could you tell me if the measured pIC50 of `NC(=O)c1ccc(-c2ncc(OCC3CCNCC3)nc2-c2ccc(-c3ccoc3)cc2)cc1F` reaches 6 or more?
Found: condition not met

Lookup: Confirm if pIC50 reported for the molecule `NCc1ccc(-c2ncc(OCc3ccccc3)nc2-c2ccc(-c3ccoc3)cc2)cc1` is 6 or above.
Found: condition not met

Lookup: Given the entry NCc1ccc(-c2ncc(OCC3CCNCC3)nc2-c2ccc(C3CCOC3)cc2)cc1 (stereo not given) , answer whether its pIC50 meets or surpasses 6.
Found: condition met

Lookup: Answer whether pIC50 of `NCc1ccc(-c2ncc(NCC3CCNCC3)nc2-c2ccc(-c3ccoc3)cc2)cc1` is greater than or equal to 6.
Found: condition met

Lookup: Could you tell me if the measured pIC50 of `NCc1ccc(-c2ncc(OCC3CCNCC3)nc2-c2ccc(-c3ccncc3)cc2)cc1` reaches 6 or more?
Found: condition not met

Lookup: Is pIC50 for `Ic1ccc(-c2ncc(OCC3CCNCC3)nc2-c2ccc(I)cc2)cc1` at or above 6?
Found: condition met

Lookup: Tell me whether pIC50 is at least 6 here: `NCc1ccc(-c2ncc(OCC3CCNCC3)nc2-c2ccc(C(=O)N3CCCCC3)cc2)cc1`
Found: condition not met

Lookup: Given the entry `NCc1ccc(-c2nc(N3CC[C@H](N)C3)c3nccn3c2-c2ccc(CN)cc2)cc1` , answer whether its pIC50 meets or surpasses 6.
Found: condition not met

Lookup: Could you verify whether the entry `NCc1ccc(-c2ncc(OCC3CCNCC3)nc2-c2ccc(N3CCCCC3)cc2)cc1` shows pIC50 of no less than 6?
Found: condition not met

Lookup: Does `NCc1ccc(-c2nc(N3CCC[C@@H](N)C3)c3nccn3c2-c2ccc(CN)cc2)cc1` have a reported pIC50 of at least 6?
Found: condition not met

Lookup: Entry `NCc1ccc(-c2ncc(OCC3CCNCC3)nc2-c2ccc(C3CCNCC3)cc2)cc1` : is its pIC50 no less than 6?
Found: condition not met

Lookup: hey, is pIC50 for this one >= 6? `NCc1cccc(-c2ncc(OCC3CCNCC3)nc2-c2ccc(-c3ccoc3)cc2)c1`
Found: condition not met

Lookup: Please indicate if the recorded pIC50 for NCc1ccc(-c2ncc(OCC3CCNCC3)nc2-c2cccc(C3CCOC3)c2)cc1 (stereo not given) meets or exceeds 6.
Found: condition not met

Lookup: Please check the record `CN(C)Cc1ccc(-c2nc(OCC3CCNCC3)cnc2-c2ccc(-c3ccoc3)cc2)cc1` and state if its pIC50 is at or above 6.
Found: condition not met
